Cited source for all entries: ChEMBL document CHEMBL4219160

# target-or-system: Human immunodeficiency virus type 1 reverse transcriptase (Human immunodeficiency virus 1, UniProt Q72547, K103N/Y181C)
# assay-name: Inhibition of HIV1 reverse transcriptase K103N/Y181C double mutant using poly (A)/oligo (dT)15 as template/primer assessed as decrease in biotin-dUTP incorporation after 1 hr by ELISA
# IC50 values compiled below

compound | unit-spec | IC50
Cc1cc(/C=C/C#N)cc(C)c1Oc1cc(NCCN2CCOCC2)nc(Nc2ccc(C#N)cc2)c1 | nM | 6270
C=CCNc1cc(Oc2c(C)cc(/C=C/C#N)cc2C)cc(Nc2ccc(C#N)cc2)n1 | nM | 31300
Cc1cc(/C=C/C#N)cc(C)c1Oc1cc(Cl)nc(Nc2ccc(C#N)cc2)n1 | nM | 80
Cc1cc(/C=C/C#N)cc(C)c1Oc1cc(Nc2ccc(C#N)cc2)nc(NC2CC2)c1 | nM | 5390
COCCNc1cc(Oc2c(C)cc(/C=C/C#N)cc2C)nc(Nc2ccc(C#N)cc2)n1 | nM | 230
Cc1cc(/C=C/C#N)cc(C)c1Oc1cc(NCCN2CCOCC2)nc(Nc2ccc(C#N)cc2)n1 | nM | 340
C=CCNc1cc(Oc2c(C)cc(/C=C/C#N)cc2C)nc(Nc2ccc(C#N)cc2)n1 | nM | 190
Cc1cc(/C=C/C#N)cc(C)c1Oc1cc(NCC2CCCO2)nc(Nc2ccc(C#N)cc2)c1 (centres undefined) | nM | 41200
Cc1cc(/C=C/C#N)cc(C)c1Oc1cc(NCCC#N)nc(Nc2ccc(C#N)cc2)n1 | nM | 100
